Run description: optical density change of DRC41 E. coli – strain DRC41, OD650, 24 h, E. coli filamentation project, primary screen (AID 1093);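 note: MC1000 strain lacking acrAB efflux and sulA so SOS filamentation is blocked; test concentration not given here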
Measurement parameters: E. coli DRC41 growth, higher = more signal, called active from +8 up or from −8 down
The source made the active and inactive calls.
For each record, write down the corresponding z-score.

Could you share which z-score value was measured for [N-]=[N+]=Nc1ccccc1[C@H]1OC(c2ccc(OCCCO)cc2)=N[C@@]1(Cc1ccccc1)C(=O)NCC(O)CO (stereo partly drawn) ?
0.824 (inactive)

Which z-score value is on record for "COC(=O)[C@@]1(Cc2ccc(OC)cc2)[C@H]2c3cc(C(=O)N(C)C)[nH]c3C[C@H]2CN1C(=O)c1ccccc1" ?
0.0515 (inactive)

Quick one: z-score for "O=C(NC1CC1)[C@@H]1c2ccccc2C(=O)N(Cc2cc(C(F)(F)F)cc(C(F)(F)F)c2)[C@H]1c1ccc(CO)cc1" ?
-0.275 (inactive)

For "CN(C)CCCNC(=O)[C@@]1(C)c2ccccc2C(=O)N(Cc2ccc(OC(F)(F)F)cc2)[C@H]1c1ccc(CO)cc1" , what is its reported z-score?
0.649 (inactive)

# query: z-score of entry "COC(=O)C(CC#Cc1ccc2c(c1)[C@]1(C(=O)N2)[C@H](c2ccccc2OCCO)N2[C@H](c3ccccc3)[C@H](c3ccccc3)OC(=O)[C@H]2[C@@H]1C(=O)N1CCc2cc(OC)c(OC)cc2C1)C(=O)OC"
0.463 (inactive)

Please look up its z-score: "C=C(CCCC)/C(=C/C[C@H](OC(=O)c1ccncc1)c1ccc(OCCO)cc1)c1cnc2ccccc2c1"
0.7 (inactive)

Request the reported z-score associated with "C=C(CCCC)C(=O)CC[C@@H](OC(=O)c1ccccc1-c1ccccc1C(=O)O)c1ccccc1OCCO"
0.306 (inactive)

Given the entry "CN(C)CCCC[C@@H]1NC(=O)[C@@H]2C[C@H](C(=O)NCCCCCCNC(=O)CS)[C@H](c3ccc(O)cc3)N2C1=O" , report its measured z-score.
-0.744 (inactive)

====

Run description: probe aXIP binding to arrayed compounds – biochemical, NeuroSMM set, 635/667 nm fluorescence, primary screen (AID 1119);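 note: probe is the protein aXip251-270 applied at 1 µg/mL to compound-printed slides; binding of probe to printed compounds measured as 667 nm fluorescence plus signal to noise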
Measurement parameters: small-molecule microarray, higher = more signal, called active from +8 up or from −8 down
Observation type: composite Z-score
Field format: numeric only.

Need composite Z-score of CCCCC(O)C1C=CC2C(=O)N(c3ccccc3)C(=O)C2N1Nc1ccccc1 (stereo not given) , thanks.
-0.539

Name the reported composite Z-score value associated with the compound "O=C1C=C(c2ccccc2)C(=O)C2=C1CC([C@H]1Oc3ccccc3S(=O)(=O)N3CCC[C@@H]13)=CC2"
0.506

What composite Z-score value was documented for this compound, "O=C1C[C@]2(c3ccc([N+](=O)[O-])cc3)C(=O)N(C3CC3)c3cc(CO)ccc3[C@H]2N1C1CCCCC1" ?
0.127

State the recorded composite Z-score for this entry: "COC(=O)[C@@]1(Cc2ccccc2)[C@H]2c3cc(C(=O)N(C)C)n(Cc4ccc(S(C)(=O)=O)cc4)c3C[C@H]2CN1C(=O)c1ccccc1"
-0.368

Which value of composite Z-score has been reported for "COCCCNC(=O)[C@@]1(Sc2ccc(C)cc2)CC(=O)N(Cc2ccccc2C(F)(F)F)[C@@H]1c1ccc(CO)cc1I" in the records?
-1.08

Dear colleague, I am looking for the recorded composite Z-score of the following compound: NC(=O)N1C(=O)C2C(C1=O)C1C=C(CCCO)C2C(c2ccc(CN3CCCC3)cc2)N1Cc1cc2c(cc1Br)OCO2 (stereo not given)
-0.328

Returns the measured composite Z-score for the input compound. Input: "C[N+](C)(C)CCCC[C@@H]1NC(=O)[C@H]2C[C@@H](C(=O)NCCCCCNC(=O)CS)[C@@H](c3cccc(OCCO)c3)N2C1=O"
0.518

Which composite Z-score is reported for this compound? "COC(=O)[C@@]1(Cc2ccc(OC)cc2)[C@H]2c3cc(C(=O)N4CCCC4)n(Cc4ccc(Cl)c(C(F)(F)F)c4)c3C[C@H]2CN1C(=O)c1ccccc1"
0.0685

Returns the measured composite Z-score for the input compound. Input: CC(C)=CCCC=C(C)C(O)C1C=CC2C(=O)N(c3ccccc3)C(=O)C2N1Nc1ccc(C#N)cc1 (stereo not given)
-0.213

Bench note: what composite Z-score did [N-]=[N+]=Nc1ccccc1[C@H]1OC(c2ccc(OCCCO)cc2)=N[C@@]1(Cc1ccccc1)C(=O)NCC(O)CO (stereo not given in full) show?
0.0774

# get_value(readout='composite Z-score', item= CC1CC/C=C\[C@H]2OC34C=CCN(Cc5ccccc5)C(=O)[C@H]3N(CCCCCCO)C(=O)[C@@H]4C2C(=O)O1 (stereo not given in full) )
-0.213

Look at this compound and give its reported composite Z-score. "COC(=O)c1cccc([C@H]2OC(=CC(=O)OC(C)C)C[C@@H](c3cccc(C(=O)OC)c3)O2)c1"
0.587

Field request: composite Z-score | item: Cc1ccc(C(C)CC(O)C2C=CC3C(=O)N(C)C(=O)C3N2Nc2ccccc2)o1 (stereo not given)
-0.288

Can you look up the measured composite Z-score of "COC(=O)[C@@]1(Cc2ccc(F)cc2)[C@H]2c3cc(C(=O)N4CCCC4)n(Cc4cc(F)cc5c4OCOC5)c3C[C@H]2CN1C(=O)c1ccccc1" for me?
0.364

Endpoint output: composite Z-score of "CC(C)NC(=O)[C@@]1(c2ccc([N+](=O)[O-])cc2)CC(=O)N(CC23CC4CC(CC(C4)C2)C3)[C@@H]1c1ccc(CO)cc1" . Value?
0.655
